# assayed target: T1, Abeta peptide (40-amino acid Abeta peptide, SEQ ID NO: 1), biotinylated (human, N-terminal biotin or C-terminal lysine-linked biotin, separated from the peptide by a PEG6 linker)
# T1 construct: Synthesized by Genscript; also called amyloid beta; test peptide
# T1 sequence (peptide, as listed by the source): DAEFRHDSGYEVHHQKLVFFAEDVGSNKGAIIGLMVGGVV
# assay protocol: BLI (Octet HTX), biotinylated Abeta on streptavidin sensors, 1 uM VHH, 1:1 fit
Rule: koff below 0.001 s⁻¹ gives criterion met, anything at or above gives criterion not met.

Lookup: Given vhhLib02-37 (VHH, The entry as printed includes HHHHHH; also called vhbLib02-37) VHH: EVQLVESGGGLVQPGGSLRLSCAASGFTFSDYVMSWYRQAPGKQRELVSAIISGEDTYYADSVKGRFTISRDNSKNTLYLQMNSLRAEDTAVYYCARYVHKSTWYYFDHWGQGTLVTVSS , is recorded koff strictly lower than 0.001 s⁻¹?
Found: criterion not met

Lookup: Also vhhLib05-10 (VHH, The entry as printed includes a doubled TLVTVSS and HHHHHH) VHH: EVQLLESGGGLVQPGGSLRLSCAASGFTFSSYAMSWVRQAPGKQREWVSAISGSGGSTYYADSVKGRFTISRDNSKNTLYLQMNSLRAEDTAVYYCARVVKVDDIVHAFDIWGQGTLVTVSS , if possible.
Found: criterion not met

Lookup: Another binder to look at: vhhLib02-21 (VHH, The entry as printed includes HHHHHH) VHH: EVQLVESGGGLVQPGGSLRLSCAASGFTFSLYTMSWYRQAPGKQRELVSAISSGGSTYYADSVKGRFTISRDNSKNTLYLQMNSLRAEDTAVYYCARYDYSWWYFDLWGQGTLVTVSS
Found: criterion met

Lookup: Now consider vhhLib05-28 (VHH, The entry as printed includes a doubled TLVTVSS and HHHHHH) VHH: EVQLLESGGGLVQPGGSLRLSCAAAGFTFSSYAMSWVRQAPGKQREWVSAISGSGGSTYYADSVKGRFTISRDNSKNTLYLQMNSLRAEDTAVYYCARLSHNSQGTVVYNYFDIWGQGTLVTVSS and answer again.
Found: criterion met

Lookup: Proceed to vhhLib05-33 (VHH, The entry as printed includes a doubled TLVTVSS and HHHHHH; also called vhbLib05-33) VHH: EVQLLESGGGLVQPGGSLRLSCAASGFTFSSYAMSWVRQAPGKQREWVSAISGSGGSTYYADSVKGRFTISRDNSKNTLYLQMNSLRAEDTAVYYCARLQGVQSDEVYYNYFDVWGQGTLVTVSS
Found: criterion not met

Lookup: Lookup vhhLib05-21 (VHH, The entry as printed includes a doubled TLVTVSS and HHHHHH; also called 16BHK) VHH: EVQLLESGGGLVQPGGSLRLSCAASGFTFSNYAMSWVRQAPGKQREWVSVISGNGSSTYYADSVKGRFTISRDNSKNTLYLQMNSLRAEDTAVYYCARLVQLPWVPISAFDVWGQGTLVTVSS
Found: criterion not met
